Test: Half life in CD1 mouse at 5 mg/kg, iv
Format: ADME, organism-based
Parameters: dose 5 mg/kg, route intravenous
Details: CD1, mouse, in vivo
Consider the following compounds; for each one, report its half-life.
Your answer is read as h, so omit the unit and give the number.

Input: Hello, please tell me recorded half-life for this one: `CC[C@H]1OC(=O)[C@H](C)[C@@H](O[C@H]2C[C@@](C)(OC)[C@@H](O)[C@H](C)O2)[C@H](C)[C@@H](O[C@@H]2O[C@H](C)C[C@H](N(C)C)[C@H]2O)[C@](C)(O)C[C@@H](C)CN(CCC(=O)N[C@H](C)c2cccc3ccccc23)[C@H](C)[C@@H](O)[C@]1(C)O`
Output: 16.5

Input: Hello, please tell me recorded half-life for this one: `CC[C@H]1OC(=O)[C@H](C)[C@@H](O[C@H]2C[C@@](C)(OC)[C@@H](O)[C@H](C)O2)[C@H](C)[C@@H](O[C@@H]2O[C@H](C)C[C@H](N(C)C)[C@H]2O)[C@](C)(O)C[C@@H](C)CN(CCCNCc2ccnc3ccccc23)[C@H](C)[C@@H](O)[C@]1(C)O`
Output: 8.7

* * *

Assay: Half life in CD1 mouse at 5 mg/kg, iv
Format: ADME, organism-based
Parameters: dose 5 mg/kg, route intravenous
Details: CD1, mouse, in vivo
Consider the following molecules; for each one, report its half-life.
Your answer is read as h, so omit the unit and give the number.

Input: Hello, please tell me recorded half-life for this one: `CC[C@H]1OC(=O)[C@H](C)[C@@H](O[C@H]2C[C@@](C)(OC)[C@@H](O)[C@H](C)O2)[C@H](C)[C@@H](O[C@@H]2O[C@H](C)C[C@H](N(C)C)[C@H]2O)[C@](C)(O)C[C@@H](C)CN(CCCNC(=O)CCc2ccccc2)[C@H](C)[C@@H](O)[C@]1(C)O`
Output: 6.9

Input: Hello, please tell me recorded half-life for this one: `CC[C@H]1OC(=O)[C@H](C)[C@@H](O[C@H]2C[C@@](C)(OC)[C@@H](O)[C@H](C)O2)[C@H](C)[C@@H](O[C@@H]2O[C@H](C)C[C@H](N(C)C)[C@H]2O)[C@](C)(O)C[C@@H](C)CN(CCCNc2ccnc3cc(Cl)ccc23)[C@H](C)[C@@H](O)[C@]1(C)O`
Output: 17.8

Input: Hello, please tell me recorded half-life for this one: `CC[C@H]1OC(=O)[C@H](C)[C@@H](O[C@H]2C[C@@](C)(OC)[C@@H](O)[C@H](C)O2)[C@H](C)[C@@H](O[C@@H]2O[C@H](C)C[C@H](N(C)C)[C@H]2O)[C@](C)(O)C[C@@H](C)CN(CCCNc2ccnc3ccccc23)[C@H](C)[C@@H](O)[C@]1(C)O`
Output: 14.4

* * *

Test system: Plasmodium falciparum
Test: Antimalarial activity against mefloquine-resistant Plasmodium falciparum TM91C235 assessed as [3H]hypoxanthine incorporation after 48 hrs
Type: functional, organism-based
resultType: IC50 (nM)
Your answer is read as nM, so omit the unit and give the number.

Input: Hello, please tell me recorded IC50 for this one: `CC[C@H]1OC(=O)[C@H](C)[C@@H](O)[C@H](C)[C@@H](O[C@@H]2O[C@H](C)C[C@H](N(C)C)[C@H]2O)[C@](C)(O)C[C@@H](C)CN(CCCNC(=O)[C@H](C)c2ccc3cc(OC)ccc3c2)[C@H](C)[C@@H](O)[C@]1(C)O`
Output: 520

Input: Hello, please tell me recorded IC50 for this one: `CC[C@H]1OC(=O)[C@H](C)[C@@H](O)[C@H](C)[C@@H](O)[C@](C)(O)C[C@@H](C)CN(CCCNCc2cnc3ccccc3c2)[C@H](C)[C@@H](O)[C@]1(C)O`
Output: 1890

Input: Hello, please tell me recorded IC50 for this one: `CC[C@H]1OC(=O)[C@H](C)[C@@H](O)[C@H](C)[C@@H](O[C@@H]2O[C@H](C)C[C@H](N(C)C)[C@H]2O)[C@](C)(O)C[C@@H](C)CN(CCCNCc2cccc3ccccc23)[C@H](C)[C@@H](O)[C@]1(C)O`
Output: 55

Input: Hello, please tell me recorded IC50 for this one: `CC[C@H]1OC(=O)[C@H](C)[C@@H](O)[C@H](C)[C@@H](O[C@@H]2O[C@H](C)C[C@H](N(C)C)[C@H]2O)[C@](C)(O)C[C@@H](C)CN(CCCNCc2ccnc3ccccc23)[C@H](C)[C@@H](O)[C@]1(C)O`
Output: 264

Input: Hello, please tell me recorded IC50 for this one: `CC[C@H]1OC(=O)[C@H](C)[C@@H](O[C@H]2C[C@@](C)(OC)[C@@H](O)[C@H](C)O2)[C@H](C)[C@@H](O[C@@H]2O[C@H](C)C[C@H](N(C)C)[C@H]2O)[C@](C)(O)C[C@@H](C)CN(CCCNCc2ccnc3ccccc23)[C@H](C)[C@@H](O)[C@]1(C)O`
Output: 165

Input: Hello, please tell me recorded IC50 for this one: `CC[C@H]1OC(=O)[C@H](C)[C@@H](O[C@H]2C[C@@](C)(OC)[C@@H](O)[C@H](C)O2)[C@H](C)[C@@H](O[C@@H]2O[C@H](C)C[C@H](N(C)C)[C@H]2O)[C@](C)(O)C[C@@H](C)CN(CCCNCc2ccccc2)[C@H](C)[C@@H](O)[C@]1(C)O`
Output: 104

Input: Hello, please tell me recorded IC50 for this one: `CC[C@H]1OC(=O)[C@H](C)[C@@H](O)[C@H](C)[C@@H](O[C@@H]2O[C@H](C)C[C@H](N(C)C)[C@H]2O)[C@](C)(O)C[C@@H](C)CN(CCCNC(=O)Cc2cccc3ccccc23)[C@H](C)[C@@H](O)[C@]1(C)O`
Output: 1370
